# Target under test: Alcohol dehydrogenase (Saccharomyces cerevisiae, UniProt P00330)
# Construct: purchased Wako Pure Chemical Industries, Ltd
# Sequence (P00330 whole entry): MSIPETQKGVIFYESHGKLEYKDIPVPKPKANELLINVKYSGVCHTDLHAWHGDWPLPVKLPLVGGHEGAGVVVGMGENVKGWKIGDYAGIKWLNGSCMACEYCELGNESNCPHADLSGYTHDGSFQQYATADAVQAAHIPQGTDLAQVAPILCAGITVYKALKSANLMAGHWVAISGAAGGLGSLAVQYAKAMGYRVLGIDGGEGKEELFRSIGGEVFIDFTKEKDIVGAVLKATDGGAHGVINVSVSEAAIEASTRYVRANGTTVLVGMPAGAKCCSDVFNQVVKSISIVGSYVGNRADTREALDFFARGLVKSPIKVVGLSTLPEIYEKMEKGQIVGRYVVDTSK
# Method notes: Amount of NADH generated from polyol substrates by alcohol dehydrogenase (Example 3)
# Format: biochemical, yeast
# Run parameters: substrate 100 mmol/L; NAD+ 1.3 mg/mL; enzyme 2.5 μ/mL; 25° C.; relative to alcohol dehydrogenase with ethylene glycol = 100
# Description: To be more specific, an alcohol dehydrogenase and an aldehyde reductase were allow to act with each substrate and the amount of NADH generated was comparatively investigated. Individual relative values are indicated as relative values by assuming the amount of NADH generated from action of the alcohol dehydrogenase with ethylene glycol to be 100.
Use criterion met when the recorded Amount of reduced coenzyme generated (relative value %), Alcohol dehydrogenase is no lower than 0.6%; use criterion not met when it is lower.

- OC[C@@H](O)[C@@H](O)CO [Erythritol, erythritol]: criterion met
- OC[C@@H](O)[C@H](O)[C@@H](O)CO [Xylitol, xylitol]: criterion not met
- OCCO [Ethylene glycol, ethylene glycol]: criterion met
- OC[C@@H](O)[C@@H](O)[C@H](O)[C@@H](O)CO [Sorbitol, sorbitol]: criterion met
